- experimental.protocol: Inhibition of Enterobacter cloacae P99 class C beta-lactamase by spectrophotometry
pKi: −log10 of the molar value.
Entries and their pKi values follow.
measured.quantity: pKi

>>> measured_result("O=P(O)(CC(O)c1ccc(-c2ccccc2)cc1)OCc1ccccc1 (racemic)")
3.59
>>> measured_result("O=C(CP(=O)(O)OCc1ccccc1)c1ccccc1 [SODIUM BENZYL PHENACYLPHOSPHONATE]")
3.17
>>> measured_result("O=C(CP(=O)(O)Oc1ccccc1)c1ccccc1 [SODIUM PHENYL PHENACYLPHOSPHONATE]")
3.70
>>> measured_result("O=C(CP(=O)(O)Oc1ccccc1)c1c(F)c(F)c(F)c(F)c1F")
3.46
